SYSTEM TESTED: T1, Full length HER2 (human, UniProt P04626 23-1255)
T1 construct: Endogenous HER2 on SKBR3, BT474, 22rv1, MDA-MB-175, MDA-MB-453 and MDA-MB-361 cells; also called HER2 on the cell surface; ErbB2
TEST DESCRIPTION: cell ELISA, phage scFv, SKBR3 cells
PROPERTY LABEL: binding result

1. S1R3B2_BMV_1H5 (scFv, V domains shown, scFv, on phage in the screen; also called Her2_S1R3B2_BMV_1H5) VH: EVQLVQSGGGLVRPGGSLRLSCAASGFSFSDYYMTWIRQIPGKGLEWVAVIWNDGSDRYYADSVKGRFTISRDNSKNTLFLQMSSLRDEDTALYYCVRGGPTASSGFDYWGRGTLVTVSS VL: SSELTQPASVSGSPGQSITISCTGTSSDVGGYNYVSWYLQHPGKAPKLMIYEGSKRPSGVSNRFSGSKSGNTASLTISGLQAEDEADYYCSSYTTRSTRVFGGGTKLTVL ... binds
